The following sequences are shown together with reported soluble fraction (log2) values.
Assay Protocol: soluble fraction after stress (log2 fold change); higher = more stays soluble; pooled small domains, quantitative proteomics
Applied Conditions: stress: 50 degC

Item Sequence: HMKQDYYSILGVMRDASQEEIKRAYLDAAQRLHPDRNTSAGDTEMFLDVQQAYEVLSNPKRRAQYDATLP
soluble fraction (log2): 0.148

Item Sequence: HMAAEEAFPGGRIVQNAEENRLQILFDEIPGEDVRAALKSHGFRWSPKNKAWQRQLTQNAEYDARRILGI
soluble fraction (log2): -0.00473

Item Sequence: HMSSKFKIVGEILSIKKSDILYIIEILSNNEVVKATAVEDEIKDLKIGDKILLSSKAFNPIVNK
soluble fraction (log2): -0.487

Item Sequence: HMINLNEVLANFQKSYPNLAGFKYDQGMDALVYEGNYIRLNGYMLSRINPTLFSMSPDDIFTYLKNGF
soluble fraction (log2): -2.53

----------
Assay Protocol: soluble fraction after stress (log2 fold change); higher = more stays soluble; pooled small domains, quantitative proteomics
Applied Conditions: stress: 50 degC
The following sequences are shown together with reported soluble fraction (log2) values.
Readout Label: soluble fraction (log2)

Item Sequence: HMEVSYSLPRFHKGKNPYVDFYQVDPRTLRMRRKKFLLRGVRDAVLLEQRAADLVALLTERLHSGWNAWDD
Readout Label: soluble fraction (log2)
Recorded Number: -2.11
//
Item Sequence: HMPSQEQSDKNAAMAFLPVIVKNALNGKGLKISDDWKAAVNTALAQYPLVNKFFNADSPEVTELVMGL
Readout Label: soluble fraction (log2)
Recorded Number: -0.0489
//
Item Sequence: HMSFYSVVISQDGSMLVAENRNEIYSNEELLELASEVNEKTGTIGTIGSLMYYKADKGGYTLITFLDNS
Readout Label: soluble fraction (log2)
Recorded Number: -3.02
//
Item Sequence: HMKTTKLEELDMQKEFILKNGKYGFGVYIGGKYIGLTDIGTVNSFKDSLQLPVVSLSDIDFKTFAEKF
Readout Label: soluble fraction (log2)
Recorded Number: -0.757
//
Item Sequence: HMFSPSDEDLELAHRQIRAFEEVEANGKSIAVVDGRIVESLHIVTARDTLEKAKAITALAEEM
Readout Label: soluble fraction (log2)
Recorded Number: 0.115
//
Item Sequence: HMGAITGLQSRVAFLKGQGTITDAEAKTAMAFLPDPTDSKEVKIAKIGQAREYIMSLIENRA
Readout Label: soluble fraction (log2)
Recorded Number: -0.106
//
Item Sequence: HMNLIFFSENLSTFRKEKGWTQSELAEKLGVKANTISNYEKGISTPDYKIIAKLRELFEMPTDVLLYSNLS
Readout Label: soluble fraction (log2)
Recorded Number: -1.39
//
Item Sequence: HMRDAKSQLQEALQKSGRLPEYELVSVEGPPHAPVFTYRVRIDGAVVGEGQGASKQAAQQAAAQSALKSG
Readout Label: soluble fraction (log2)
Recorded Number: 0.145
//
Item Sequence: HMKYNETEFKNLVAKLYNGEIEIVGKFTGLSYPILVKDKYGIMLSQKANLILNYRPTINIALNKTEYAMN
Readout Label: soluble fraction (log2)
Recorded Number: -0.0487
//
Item Sequence: HMLQFTYPRLHTKKSWYVDFMSFDPGAGKMRRKKFMLDGIPKITDRRKRAAELIEVLTKQLRAGWSPWVNV
Readout Label: soluble fraction (log2)
Recorded Number: -3.59
//
Item Sequence: HMQEPNYQPLMQNIKSQDLEEVTRLLSLNDVKFKIDHRTGLLLVESSRVYEAKMKLAATGITD
Readout Label: soluble fraction (log2)
Recorded Number: -0.224
//
Item Sequence: HMKNIINFIVKEDDNNKRVDMILANHDKSLSRTRVKNLILDSKLKINERIVQDPSIKTKLNDKIELEIVEP
Readout Label: soluble fraction (log2)
Recorded Number: 0.611
//
Item Sequence: HMDDENKIEVMINEEKVQLTGKDKYVFVDIFNYIDMDLTRIHGNLVLKLNGENASHNSLLKSGDKIEARWE
Readout Label: soluble fraction (log2)
Recorded Number: -0.181
//
Item Sequence: HMQSVKTQPLRDWLLAHFDKPYPDDEDKVRLAEASGMTRAQVGNWFINARVRTWRPMVLDLGEEIERESV
Readout Label: soluble fraction (log2)
Recorded Number: -0.649
//
Item Sequence: HMKNEFRVYPNPANKEIVTFNQTQDIEVYDTLGKLVLKAKNTNTLDTKSFHSGIYFIKTGSGLTRKLVV
Readout Label: soluble fraction (log2)
Recorded Number: 0.107
//
Item Sequence: HMAAVPYQVKITTEDLRIRTGPGTNHDFTGQYTGKGVFTIVEESEGSGAPIWGRLKSGAGWIGIDPSWSVR
Readout Label: soluble fraction (log2)
Recorded Number: -0.706
//
Item Sequence: HMEETLRELAVKISKQVIKTGRNSVLEPMNPYERRIIHAVISEIEGVSSKSVGEDPNRKVVIMSTNP
Readout Label: soluble fraction (log2)
Recorded Number: -0.126

----------
The following sequences are shown together with reported soluble fraction (log2) values.
Assay Protocol: soluble fraction after stress (log2 fold change); higher = more stays soluble; pooled small domains, quantitative proteomics
Applied Conditions: stress: 50 degC
Readout Label: soluble fraction (log2)

Item Sequence: HMARDSYNGVQRTISTLLGQGNYDRAYDVAVGARGQMSKQQWSDVAKRIYEVSGIKIDDSVKY
Readout Label: soluble fraction (log2)
Recorded Number: 0.159
--
Item Sequence: HMAGATDTVRNLLERQIREGELLPGQRLPTEPELAARLGVSRNSLREALQSLEDSGLIVKRHGIGTFVTE
Readout Label: soluble fraction (log2)
Recorded Number: 0.0848
--
Item Sequence: HMIINFDAIKLTTELNKYKRHKAIPNTFFDGTYTILDVRELYNDLTPKAQKIADELIEHYNVDVK
Readout Label: soluble fraction (log2)
Recorded Number: -1.88
--
Item Sequence: HMSTADGGYPSIVINDGRVIDTNLQKLGLDRSWLSAELKRQGKGSEKDIFLMTVNQRREVYISVKEA
Readout Label: soluble fraction (log2)
Recorded Number: -0.27
--
Item Sequence: HMDDGLTRLTPRENEVLELMAQGRSNTAIAERLVLSYGAVEKNVSSIFTKLDLPLDAGDHRRVLAVLRRLN
Readout Label: soluble fraction (log2)
Recorded Number: -0.688
--
Item Sequence: HMQDGVNLENIEQKLSTLGVGKAQYFLQNVGGNKFNAYMALNTDGVEGYQKGSDTLIEIKNVE
Readout Label: soluble fraction (log2)
Recorded Number: 0.11
--
Item Sequence: HMSKININTITESELKELPISTVKQKAIQDYLIDRGFISNIYDLLDIKEITSDDVSLLKKVVNVKLPY
Readout Label: soluble fraction (log2)
Recorded Number: -0.218
--
Item Sequence: HMSRAMFEMHADWQPTDSIRGLLGRAGLPTDIAKLDQSRIGDFVNHWFGKPDRNTADSWNGLLVGWLKRTQ
Readout Label: soluble fraction (log2)
Recorded Number: -1.18
--
Item Sequence: HMPEPMKLSDLPPELWQRVSDLFDEVIDLPETDRIPYIRNLWGSEPLVAKELMALLVAAANVD
Readout Label: soluble fraction (log2)
Recorded Number: -0.274
--
Item Sequence: HMASPRVWKDASSGRTLTGEFVELTKDAVKVRRANGDVVSLPLSRLTEEDITFAKGASETGGA
Readout Label: soluble fraction (log2)
Recorded Number: 0.146
--
Item Sequence: HMDAPKPDIGMSTDQIRSSLGQPGSQTRLETGGGRIYELWIYLYPDGKELQIYFDNAKVVKMEALS
Readout Label: soluble fraction (log2)
Recorded Number: -0.613
--
Item Sequence: HMVITISEADVSGTYTKSITQGDWKYIRTWTPFEDERLYDLAKDPMELRDLAPAAPSKLAELRELLSALVS
Readout Label: soluble fraction (log2)
Recorded Number: -1.51
--
Item Sequence: HMQVTDTGTIEGEIDKVLAANPDRVTEYHDGKEKILGWFVGQVMQTTKGKANPQMVNQLFLEKLK
Readout Label: soluble fraction (log2)
Recorded Number: 0.142
--
Item Sequence: HMFEQRLRQAMKELRLKQVQVAGLTGKSRGAISQYLSGDRVPPDGVQREMAIALGLEADYFSR
Readout Label: soluble fraction (log2)
Recorded Number: -0.408
--
Item Sequence: HMTIYPFNPNYLKDYQAYRVGLSLKEIDALLDFRSSGQWINSAEDFQRITGVSDSVLEQLIPYFKFS
Readout Label: soluble fraction (log2)
Recorded Number: -2.49
--
Item Sequence: HMKVSDLIGMLGRVTGELAPTGIVLVGNKTWTAISEDASVIASGEQVQVRSVAGLILTVSHQVD
Readout Label: soluble fraction (log2)
Recorded Number: -2.15
--
Item Sequence: HMKDITAVISKKKGRDYYYIIVSYHLSNGKRVQKWIKTEFSVNGNNKRKLEQKRIEILQEWQNKLV
Readout Label: soluble fraction (log2)
Recorded Number: -0.642

----------
Assay Protocol: soluble fraction after stress (log2 fold change); higher = more stays soluble; pooled small domains, quantitative proteomics
Applied Conditions: stress: 50 degC
# soluble fraction (log2) binned as low interval (below -0.6), middle interval (-0.6 to below 0.08), high interval (0.08 or more)

Item Sequence: HMEKEKIKEALIGYFEAEPEEKFTVQELADKLKMNKAGQFNFVVQAVAQLEHDKVITLDDEGNFSLVRHE
Category: low interval
--
Item Sequence: HMEPPPSYSALLKQISSGKVKELQLVPARREVIVTYPDGRSATVAILANDQQILRTAEAAGTPLLVK
Category: high interval
--
Item Sequence: HMTRVDKLQTWLSLPREQRDWDEGALMLLQLTGNKIMYRNLSVNPEGKANFIEGKLQQYLEFRLA
Category: low interval
--
Item Sequence: HMGEQETILKGDVNRDGVVDVNDVTHLQIHISNDDKNPLIDVTNKAWFDAADMYGDGKLDILDATALQIYI
Category: high interval
--
Item Sequence: HMRDLVTYVVQVNGKLRGKLEVSPSTDDNSLKTMALELENVQRALEGLSVKKVIVIPGKMVSIAAG
Category: high interval
--
Item Sequence: HMETISEIWRLIDGLDEIYRVPLTMYYRSNRSVREIAETLGLSARTVETRIYRARRMIREKWSN
Category: low interval
--
Item Sequence: HMYRWSEEIFEKLRSDIMAALDLSREQNDEEIYRFIETEVEEYSQNNLLTLKEREQLEHLLFNSL
Category: low interval
--
Item Sequence: HMSGRSVSYSEFMSRVEAGQVSSVTLDGERVEVTGSDGSRYVTIAPSDATLTDKLVAKGVEVRADP
Category: high interval
--
Item Sequence: HMKLSKKVTDFLAQMPSKSISPKMLANNLGLADDAGDYKHLLKTIAQLEESKAIEVTAAGNIALPQPE
Category: middle interval
--
Item Sequence: HMRMQRYYLTDMSEKGREALPGVLDEMGYAGRYTMSDNSIAINSNMIVLSKAIKRAEDIAHNE
Category: middle interval
--
Item Sequence: HMDVNMLVTGMLHKGEKSFVRVSFLRGKDWAEGIVPDAKIEKSQGFMEEEVARLEAYLLEQKSMIMEQA
Category: low interval
--
Item Sequence: HMEFEYFQLRDHLYNLIMHPDKEKLKKDPDYLKLMSMAFSLLEDQNVGKDILEIAIKSIENFK
Category: middle interval
--
Item Sequence: HMTMGAAEAQALKDEALELYRTGGTQEDVVRAIEMYEQAAEAGNAQAASDLAYLKANGVYETAMNN
Category: high interval
--
Item Sequence: HMIEIKNLSFSYGKKKQSVFNDFSLTLDKGSVYGLLGKNGTGKSTLLYLMTGLLRPQAGQVLYKGVDVS
Category: high interval
--
Item Sequence: HMGMGDALRILFNQAMLIEREQYLQAGAYERNENPVNYANGFKAKTLNTRVGALEVAVPQTRDSAFYPSFL
Category: middle interval
--
Item Sequence: HMNEDYSSMVGKTGFALTILRPAGKIMIEEEVFDAVAINGYISKGQEVEVVRYENAQLYVKVK
Category: middle interval
--
Item Sequence: HMAIDLSLIPGNLLRELHGAVEDGDMYRIRELIRSISAVDEKVGKELLLLAERYDYERLLELVND
Category: middle interval
